Tested on: KAI1 promoter
Assay: KAI1 promoter luciferase reporter assay in transfected Caco2 cells
Assay type: cell-based, human
Details: Homo sapiens, Caco-2, 16 h, 1 μM compound, 16 hours, transfected Caco2 cells, luciferase activity relative to DMSO control (=1); read-out: Relative KAI promoter activity
Reported fold induction at 1 µM values for a set of compounds

{"MOL": "CC(C)(C)CC(=O)NCC(=O)c1ccc(Cl)cc1", "SYSTEM": "KAI1 promoter", "fold induction at 1 µM": 0.81}
{"MOL": "COc1ccc(S(=O)(=O)NCC(=O)c2ccc(N(C)C)cc2)cc1", "SYSTEM": "KAI1 promoter", "fold induction at 1 µM": 1.44}
{"MOL": "O=C(CNC(=O)c1ccccc1OC1CCN(C(=O)c2cc(Cl)cc(Cl)c2)CC1)c1ccccc1", "SYSTEM": "KAI1 promoter", "fold induction at 1 µM": 0.92}
{"MOL": "C/C=C/C(=O)NCC(=O)c1ccc(N2CCOCC2)cc1", "SYSTEM": "KAI1 promoter", "fold induction at 1 µM": 1.01}
{"MOL": "COc1cccc(C(=O)CNC(=O)c2cccc(CN3CCN(c4ccccn4)CC3)c2)c1", "SYSTEM": "KAI1 promoter", "fold induction at 1 µM": 1.44}
{"MOL": "O=C(CNC(=O)c1ccccc1OC1CCN(C(=O)C2CC2)CC1)c1ccccc1", "SYSTEM": "KAI1 promoter", "fold induction at 1 µM": 1.01}
{"MOL": "COc1cccc(C(=O)CNC(=O)c2cccc(CN3CCOCC3)c2)c1", "SYSTEM": "KAI1 promoter", "fold induction at 1 µM": 1.25}
{"MOL": "O=C(COc1ccccc1C(=O)NCC(=O)c1ccccc1)Nc1ccccc1", "SYSTEM": "KAI1 promoter", "fold induction at 1 µM": 1.46}
{"MOL": "O=C(CNC(=O)c1ccccc1OC1CCN(C(=O)c2ccc(Cl)cc2)CC1)c1ccccc1", "SYSTEM": "KAI1 promoter", "fold induction at 1 µM": 1.05}
{"MOL": "O=C(COc1ccccc1C(=O)NCC(=O)c1ccccc1)Nc1ccc2c(c1)CCC2", "SYSTEM": "KAI1 promoter", "fold induction at 1 µM": 1.27}
{"MOL": "O=C(CNC(=O)c1ccccc1C(F)(F)F)c1ccc(Cl)cc1", "SYSTEM": "KAI1 promoter", "fold induction at 1 µM": 0.99}
{"MOL": "CCCN(CCC)Cc1cccc(C(=O)NCC(=O)c2ccccc2)c1", "SYSTEM": "KAI1 promoter", "fold induction at 1 µM": 1.3}
{"MOL": "O=C(CNC(=O)c1ccccc1OC1CCN(C(=O)c2cccc(Cl)c2)CC1)c1ccccc1", "SYSTEM": "KAI1 promoter", "fold induction at 1 µM": 1.05}

====

Quick reference: fold induction at 1 µM of the listed items.
Tested on: KAI1 promoter
Test: KAI1 promoter luciferase reporter assay in transfected Caco2 cells
Assay type: cell-based, human
Details: Homo sapiens, Caco-2, 16 h, 1 μM compound, 16 hours, transfected Caco2 cells, luciferase activity relative to DMSO control (=1); read-out: Relative KAI promoter activity

{"MOL": "CCCN(CC)Cc1cccc(C(=O)NCC(=O)c2cccc(OC)c2)c1", "fold induction at 1 µM": 1.57}
{"MOL": "COc1ccc(C(=O)NCC(=O)c2ccc(N3CCOCC3)cc2)cc1", "fold induction at 1 µM": 1.15}
{"MOL": "CCCCCN(CCCCC)Cc1cccc(C(=O)NCC(=O)c2cccc(OC)c2)c1", "fold induction at 1 µM": 1.62}
{"MOL": "O=C(CNC(=O)c1cccc([N+](=O)[O-])c1)c1ccc(Cl)cc1", "fold induction at 1 µM": 0.92}

Reference for the values: patent US20230150924A1
